# test protocol: Bulk stability of crystalline forms
# Assay type: physicochemical
# measurement parameters: Solid state, 60° C., tight container, 1 week
# Purity, Bulk (HPLC) per record follows
quantity kind: Purity, Bulk (HPLC)

>>> value_measured("Nc1nc(=O)n(-c2ccccc2Cl)c2nc(C(F)(F)F)ccc12 [Form D]")
"98.1%"
>>> value_measured("Nc1nc(=O)n(-c2ccccc2Cl)c2nc(C(F)(F)F)ccc12 [Form T]")
"99.1%"
>>> value_measured("Nc1nc(=O)n(-c2ccccc2Cl)c2nc(C(F)(F)F)ccc12 [Form A]")
"99.1%"
>>> value_measured("Nc1nc(=O)n(-c2ccccc2Cl)c2nc(C(F)(F)F)ccc12 [solid state Form V]")
"98.8%"
>>> value_measured("Nc1nc(=O)n(-c2ccccc2Cl)c2nc(C(F)(F)F)ccc12 [substantially amorphous form]")
"98.4%"

----------
# test protocol: Equilibrium solubility in SGF (pH 2.0), 0.1 N HCl (pH 1.2) and phosphate buffer (pH 8.0)
# Format: physicochemical
# measurement parameters: phosphate buffer, 37 °C, pH 8, aqueous buffer, thermodynamic from solid, pH 8 (phosphate buffer), 24 hours, target concentration 1 mg/mL, HPLC method 2
quantity kind: solubility at 24 h (µg/mL)

>>> value_measured("Nc1nc(=O)n(-c2ccccc2Cl)c2nc(C(F)(F)F)ccc12 [solid state Form V]")
40

----------
# test protocol: Approximate solubility of solid state Form V at 25° C. and 50° C. (visual observation)
# Format: physicochemical
# measurement parameters: organic solvent or mixture, thermodynamic from solid, SL11 2-methyl-THF, 25° C.
quantity kind: solubility at 10 min

>>> value_measured("Nc1nc(=O)n(-c2ccccc2Cl)c2nc(C(F)(F)F)ccc12 [solid state Form V]")
"< 5000 µg/mL"

----------
# test protocol: Bulk stability of crystalline forms
# Type: physicochemical
# Design: key: Color A: All No change of color
# measurement parameters: Solid state, 40° C./75% RH, open container, 2 weeks
quantity kind: Color

>>> value_measured("Nc1nc(=O)n(-c2ccccc2Cl)c2nc(C(F)(F)F)ccc12 [Form D]")
"A"
>>> value_measured("Nc1nc(=O)n(-c2ccccc2Cl)c2nc(C(F)(F)F)ccc12 [substantially amorphous form]")
"A"
>>> value_measured("Nc1nc(=O)n(-c2ccccc2Cl)c2nc(C(F)(F)F)ccc12 [solid state Form V]")
"A"
>>> value_measured("Nc1nc(=O)n(-c2ccccc2Cl)c2nc(C(F)(F)F)ccc12 [Form A]")
"A"
>>> value_measured("Nc1nc(=O)n(-c2ccccc2Cl)c2nc(C(F)(F)F)ccc12 [Form T]")
"A"

----------
# test protocol: Approximate solubility of solid state Form V at 25° C. and 50° C. (visual observation)
# Assay type: physicochemical
# measurement parameters: organic solvent or mixture, thermodynamic from solid, SL12 Acetonitrile, 25° C.
quantity kind: solubility at 10 min

>>> value_measured("Nc1nc(=O)n(-c2ccccc2Cl)c2nc(C(F)(F)F)ccc12 [solid state Form V]")
"< 5000 µg/mL"

----------
# test protocol: Approximate solubility of solid state Form V at 25° C. and 50° C. (visual observation)
# Format: physicochemical
# measurement parameters: organic solvent or mixture, thermodynamic from solid, SL9 t-Butyl methyl ether, 50° C.
quantity kind: solubility at 10 min

>>> value_measured("Nc1nc(=O)n(-c2ccccc2Cl)c2nc(C(F)(F)F)ccc12 [solid state Form V]")
"< 5000 µg/mL"

----------
# test protocol: Equilibrium solubility in SGF (pH 2.0), 0.1 N HCl (pH 1.2) and phosphate buffer (pH 8.0)
# Format: physicochemical
# measurement parameters: 0.1 N HCl, 37 °C, pH 1.2, simulated gastric fluid, thermodynamic from solid, pH 1.2 (0.1N HCl), 24 hours, target concentration 1 mg/mL, HPLC method 2
quantity kind: solubility at 24 h

>>> value_measured("Nc1nc(=O)n(-c2ccccc2Cl)c2nc(C(F)(F)F)ccc12 [solid state Form V]")
"150 µg/mL"

----------
# test protocol: Approximate solubility of solid state Form V at 25° C. and 50° C. (visual observation)
# Assay type: physicochemical
# measurement parameters: organic solvent or mixture, thermodynamic from solid, SL9 t-Butyl methyl ether, 25° C.
quantity kind: solubility at 10 min

>>> value_measured("Nc1nc(=O)n(-c2ccccc2Cl)c2nc(C(F)(F)F)ccc12 [solid state Form V]")
"< 5000 µg/mL"

----------
# test protocol: Approximate solubility of solid state Form V at 25° C. and 50° C. (visual observation)
# Type: physicochemical
# measurement parameters: organic solvent or mixture, thermodynamic from solid, SL7 Acetone, 50° C.
quantity kind: solubility at 10 min

>>> value_measured("Nc1nc(=O)n(-c2ccccc2Cl)c2nc(C(F)(F)F)ccc12 [solid state Form V]")
"5000 to 10000 µg/mL"

----------
# test protocol: Approximate solubility of solid state Form V at 25° C. and 50° C. (visual observation)
# Assay type: physicochemical
# measurement parameters: organic solvent or mixture, thermodynamic from solid, SL6 Isopropyl acetate, 50° C.
quantity kind: solubility at 10 min

>>> value_measured("Nc1nc(=O)n(-c2ccccc2Cl)c2nc(C(F)(F)F)ccc12 [solid state Form V]")
"< 5000 µg/mL"

----------
# test protocol: Equilibrium solubility in FeSSIF and FaSSIF
# Assay type: physicochemical
# measurement parameters: FaSSIF, 37 °C, pH 6.5, fassif, thermodynamic from solid, pH 6.5, 37° C., target concentration 1 mg/mL, HPLC method 1 or 2 (footnote)
# Description: Solid part and liquid part were separated by filtration. Solubility was measured by HPLC. Solid part (wet cake) was investigated by XRPD.
quantity kind: solubility at 24 h (µg/mL)

>>> value_measured("Nc1nc(=O)n(-c2ccccc2Cl)c2nc(C(F)(F)F)ccc12 [Form A]")
90

----------
# test protocol: Hygroscopicity: water sorption and desorption by dynamic vapor sorption (DVS)
# Assay type: physicochemical
# measurement parameters: XRPD after DVS
quantity kind: form change after the DVS test

>>> value_measured("Nc1nc(=O)n(-c2ccccc2Cl)c2nc(C(F)(F)F)ccc12 [Form T]")
"No form change"
>>> value_measured("Nc1nc(=O)n(-c2ccccc2Cl)c2nc(C(F)(F)F)ccc12 [Form A]")
"No form change"
>>> value_measured("Nc1nc(=O)n(-c2ccccc2Cl)c2nc(C(F)(F)F)ccc12 [Form D]")
"No form change"

----------
# test protocol: Approximate solubility of solid state Form V at 25° C. and 50° C. (visual observation)
# Assay type: physicochemical
# measurement parameters: organic solvent or mixture, thermodynamic from solid, SL2 Methanol, 25° C.
quantity kind: solubility at 10 min

>>> value_measured("Nc1nc(=O)n(-c2ccccc2Cl)c2nc(C(F)(F)F)ccc12 [solid state Form V]")
"15 to 18 mg/mL"

----------
# test protocol: Approximate solubility of solid state Form V at 25° C. and 50° C. (visual observation)
# Type: physicochemical
# measurement parameters: organic solvent or mixture, thermodynamic from solid, SL15 Toluene, 25° C.
quantity kind: solubility at 10 min

>>> value_measured("Nc1nc(=O)n(-c2ccccc2Cl)c2nc(C(F)(F)F)ccc12 [solid state Form V]")
"< 5000 µg/mL"

----------
# test protocol: Approximate solubility of solid state Form V at 25° C. and 50° C. (visual observation)
# Format: physicochemical
# measurement parameters: organic solvent or mixture, thermodynamic from solid, SL2 Methanol, 50° C.
quantity kind: solubility at 10 min

>>> value_measured("Nc1nc(=O)n(-c2ccccc2Cl)c2nc(C(F)(F)F)ccc12 [solid state Form V]")
"30 to 35 mg/mL"

----------
# test protocol: Bulk stability of crystalline forms
# Format: physicochemical
# measurement parameters: Solid state, 25° C./92% RH, open container, 2 weeks
quantity kind: Purity, Bulk (HPLC) (%)

>>> value_measured("Nc1nc(=O)n(-c2ccccc2Cl)c2nc(C(F)(F)F)ccc12 [Form D]")
98.0
>>> value_measured("Nc1nc(=O)n(-c2ccccc2Cl)c2nc(C(F)(F)F)ccc12 [Form A]")
99.2
>>> value_measured("Nc1nc(=O)n(-c2ccccc2Cl)c2nc(C(F)(F)F)ccc12 [solid state Form V]")
98.9
>>> value_measured("Nc1nc(=O)n(-c2ccccc2Cl)c2nc(C(F)(F)F)ccc12 [substantially amorphous form]")
98.1
>>> value_measured("Nc1nc(=O)n(-c2ccccc2Cl)c2nc(C(F)(F)F)ccc12 [Form T]")
99.0

----------
# test protocol: Bulk stability of crystalline forms
# Assay type: physicochemical
# measurement parameters: Solid state, 25° C./92% RH, open container, 1 week
quantity kind: Purity, Bulk (HPLC) (%)

>>> value_measured("Nc1nc(=O)n(-c2ccccc2Cl)c2nc(C(F)(F)F)ccc12 [substantially amorphous form]")
98.5
>>> value_measured("Nc1nc(=O)n(-c2ccccc2Cl)c2nc(C(F)(F)F)ccc12 [Form D]")
98.0
>>> value_measured("Nc1nc(=O)n(-c2ccccc2Cl)c2nc(C(F)(F)F)ccc12 [solid state Form V]")
98.9
>>> value_measured("Nc1nc(=O)n(-c2ccccc2Cl)c2nc(C(F)(F)F)ccc12 [Form A]")
99.0
>>> value_measured("Nc1nc(=O)n(-c2ccccc2Cl)c2nc(C(F)(F)F)ccc12 [Form T]")
99.1
